- System: Hh/SMO pathway
- METHOD: Gli-Luciferase functional assay, NIH 3T3 Gli-RE cells stimulated with ShhN
- Type: cell-based
- EXPERIMENTAL_CONTEXT: Mus musculus, NIH3T3, read-out: Hh/SMO pathway inhibition IC50, NIH3T3 Gli-RE cells, ShhN-conditioned media, n = 3
- Protocol: After 24 hours, when the cells reached confluency, the culture medium was replaced with 80 μL per well of assay medium [Optimem ± 10 mM HEPES ± 1 mM Sodium Pyruvate + 1× MEM NEAA]. […] Plates were mixed by pipetting, centrifuged to eliminate foam, incubated for 10 minutes, and analyzed using Perkin Elmer Viktor X luminescence plate reader. The results were analyzed using a non-linear regression (Prism 6, GraphPad Software, La Jolla, CA). […]
pIC50: −log10 of the molar value.

- COMPOUND: "CC1=C2C[C@H]3[C@@H](CC=C4C[C@@H](O)CC[C@@]43C)[C@@H]2CC[C@]12O[C@@H]1C[C@H](C)CN[C@H]1[C@H]2C [Cyclopamine]"
  pIC50: 6.72
- COMPOUND: "Cc1cn(-c2cc(NC(=O)c3ccc(C)c(Nc4nccc(-c5cccnc5)n4)c3)cc(C(F)(F)F)c2)cn1 [Nilotinib]"
  pIC50: 6.43
